// compounds with IC50 on Ubiquitin carboxyl-terminal hydrolase 7 (Homo sapiens), multi-source literature

{"Compound": "Cc1cc(Cl)cc(-c2ccnc3cc(CN4C(=O)CCC4=O)sc23)c1CN1[C@@H](C)CN(C)C[C@@H]1C", "IC50": "< 0.01 µM"}

Input: Name the recorded IC50 for CCC(O)c1cc2nccc(-c3cc(Cl)cc4c3OC(c3onc5c3CNCC5)C4)n2n1 (stereo not drawn) .
Output: 1 to 10 µM

Input: How about this compound: CC1(C)C2C(=O)N(Cc3cc4nccc(-c5cc(Cl)cc6c5N([C@@H]5CNC7(CCC7)C5)CCO6)c4s3)C(=O)C21 (stereo partly drawn)
Output: 0.01 to 0.1 µM

Input: How about this compound: Cc1cc(Cl)cc(-c2ccnc3cc(Cn4c(=O)ccn(CC(F)(F)F)c4=O)sc23)c1CN1CCNCCC1=O
Output: 0.01 to 0.1 µM

Input: How about this compound: O=C(CCc1ccccc1)N1CCC(O)(Cn2cnc3cc([N+](=O)[O-])ccc3c2=O)CC1
Output: > 10 µM

Input: How about this compound: O=C(C1Cc2cc(Cl)cc(-c3ccnc(NCCO)c3)c2O1)N1CCNCC1 (stereo not drawn)
Output: 1 to 10 µM
